Overview of reported IC50 across a group of compounds:
- Assay Text: Cytotoxicity against human HL7702 cells after 48 hrs by MTT assay
- Assay type: functional, cell-based
- Test Settings: L02, 48 h

{"Smiles Repr": "COc1ccc(NC(=O)[C@@H](Cc2ccccc2)NC(=O)[C@]2(C)CCC[C@]3(C)c4ccc(C(C)C)cc4/C(=N\\O)C[C@@H]23)cc1", "IC50 / µM": 56.2}
{"Smiles Repr": "COc1cc(NC(=O)[C@H](Cc2ccccc2)NC(=O)[C@]2(C)CCC[C@]3(C)c4ccc(C(C)C)cc4C(=O)C[C@@H]23)cc(OC)c1OC", "IC50 / µM": 69.5}
{"Smiles Repr": "CC(C)c1ccc2c(c1)C(=O)C[C@H]1[C@](C)(C(=O)N[C@@H](Cc3ccccc3)C(=O)Nc3ccc(F)cc3)CCC[C@]21C", "IC50 / µM": 66.5}
{"Smiles Repr": "CC(C)c1ccc2c(c1)C(=O)C[C@H]1[C@](C)(C(=O)N[C@@H](Cc3ccccc3)C(=O)Nc3ccccc3F)CCC[C@]21C", "IC50 / µM": 47.6}
{"Smiles Repr": "CC(C)c1ccc2c(c1)/C(=N\\O)C[C@H]1[C@](C)(C(=O)N[C@@H](Cc3ccccc3)C(=O)Nc3ccccc3)CCC[C@]21C", "IC50 / µM": 45.9}
